Recorded IC50 by entry
- Test target: human Cot catalytic domain (30-397 amino acids) (Homo sapiens, UniProt P41279)
- Construct: Purified recombinant human Cot catalytic domain (30-397 amino acids) was purchased from Cama Biosciences; purchased Cama Biosciences (so in the source)
- Sequence (P41279 30-397): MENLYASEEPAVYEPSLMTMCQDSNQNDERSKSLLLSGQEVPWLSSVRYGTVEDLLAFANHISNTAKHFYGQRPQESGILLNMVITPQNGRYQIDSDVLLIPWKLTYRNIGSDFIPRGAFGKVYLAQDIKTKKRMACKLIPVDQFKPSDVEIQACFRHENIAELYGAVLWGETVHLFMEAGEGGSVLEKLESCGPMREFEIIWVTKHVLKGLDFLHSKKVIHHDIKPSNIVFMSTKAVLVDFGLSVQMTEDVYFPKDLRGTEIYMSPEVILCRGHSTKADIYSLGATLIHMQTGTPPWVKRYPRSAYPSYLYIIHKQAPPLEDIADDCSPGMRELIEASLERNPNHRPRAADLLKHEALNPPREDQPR
- Test protocol: High Throughput Cot Biochemical Assay (KinEASE TR-FRET)
- Particulars: Cot KinEASE TR-FRET, 400 μM ATP; read-out: IC50 HTRF

| Compound | IC50 |
| --- | --- |
| [2H]C(Nc1cc(C#N)c2ncc(C#N)c(NCC(C)(C)C)c2c1)(c1cn(C2(C(F)F)CC2)nn1)c1ccccc1Cl (stereo not shown) | 13 nM |
| N#Cc1cnc2c(Cl)cc(N[C@@H](c3ccc(F)cc3)c3cn(C4CCNCC4)nn3)cc2c1Nc1ccc(F)c(Cl)c1 | 7 nM |
| Cc1c(C#N)cccc1[C@H](Nc1cc(Cl)c2ncc(C#N)c(NCC(C)(C)C)c2c1)c1cn([C@@H](C)CF)nn1 | 5 nM |
| Cc1c(-c2cn(C)cn2)cccc1[C@H](Nc1cc(C#N)c2ncc(C#N)c(NCC(C)(C)C)c2c1)c1cn(C2(C(F)(F)F)CC2)nn1 | 5 nM |
| CC(C)(C)CNc1c(C#N)cnc2c(C#N)cc(N[C@H](c3cn(C4(C(F)F)CC4)nn3)c3cccc(C#N)c3Cl)cc12 | 7 nM |
| [2H][C@](Nc1cc(Cl)c2ncc(C#N)c(NCC(C)(C)C)c2c1)(c1ccc(Cl)cc1)c1cn(C2CCN(C(C)(C)C)CC2)nn1 | 7 nM |
| CC(C)(C)CNc1c(C#N)cnc2c(Cl)cc(N[C@H](c3cn(C4(C(F)(F)F)CC4)nn3)c3cccc(C(=O)O)c3F)cc12 | 76 nM |
| Cc1cc(F)ccc1[C@H](Nc1cc(Cl)c2ncc(C#N)c(NCC(C)(C)C)c2c1)c1cn(C2(C(F)F)CC2)nn1 | 37 nM |
| Cc1c([C@H](Nc2cc(C#N)c3ncc(C#N)c(NCC(C)(C)C)c3c2)c2cn(C3(C(F)(F)F)CC3)nn2)cccc1-n1cncn1 | 3 nM |
| CC(C)(C)CNc1c(C#N)cnc2c(C#N)cc(N[C@@H](c3ccccc3Cl)c3nnn(C4(C)CC4)c3F)cc12 | 50 nM |
| CC(C)(C)CNc1c(C#N)cnc2c(C#N)cc(N[C@@H](c3cccc(C4(C#N)CC4)c3)c3cn(C4(C(F)(F)F)CC4)nn3)cc12 | 9 nM |
| N#Cc1cnc2c(Cl)cc(N[C@@H](c3ccc(F)cc3)c3cn(C4CCN(C5CC(F)(F)C5)CC4)nn3)cc2c1Nc1ccc(F)c(Cl)c1 | 90 nM |
| N#Cc1cnc2c(Cl)cc(N[C@@H](c3ccc(F)cc3)c3cn(C4CCN(C5CC5)CC4)nn3)cc2c1Nc1ccc(F)c(Cl)c1 | 21 nM |

---

- Test target: human Cot catalytic domain (30-397 amino acids) (Homo sapiens)
- Construct: Purified recombinant human Cot catalytic domain (30-397 amino acids) was purchased from Cama Biosciences; purchased Cama Biosciences (so in the source)
- Test protocol: High Throughput Cot Biochemical Assay (KinEASE TR-FRET)
- Particulars: Cot KinEASE TR-FRET, 400 μM ATP; read-out: IC50 HTRF
Value type: IC50 (nM)

| Compound | Result comparator | Numeric readout |
| --- | --- | --- |
| CC(C)(C)N1CCC(n2cc([C@@H](Nc3cc(Cl)c4ncc(C#N)c(Nc5ccn(CC(F)(F)F)n5)c4c3)c3ccc(Cl)cc3)nn2)CC1 [Example 752] | > | 10000 |
| N#Cc1cnc2c(Cl)cc(N[C@H](c3cn(C4CC4)nn3)c3ccccc3Cl)cc2c1NCC12CC(C1)C2 [Example 928] | = | 68 |
| CC(C)(C)CNc1c(C#N)cnc2c(C#N)cc(N[C@H](c3cn(C4(C#N)CC4)nn3)c3ccccc3C(F)F)cc12 [Example 1025] | = | 10 |
| N#Cc1cnc2c(Cl)cc(NC(c3ccc(OC(F)(F)F)cc3)c3cn(C4CCNCC4)nn3)cc2c1Nc1ccc(F)c(Cl)c1 (stereo not drawn) [Example 897] | = | 59 |
| Cc1c(-c2ncco2)cccc1[C@H](Nc1cc(C#N)c2ncc(C#N)c(NCC(C)(C)C)c2c1)c1cn(C2(C(F)(F)F)CC2)nn1 [Example 1055] | = | 3 |
| Cc1c([C@H](Nc2cc(Cl)c3ncc(C#N)c(NCC(C)(C)C)c3c2)c2cn(C3(C(F)(F)F)CC3)nn2)cccc1-n1ccnc1 [Example 1041] | = | 4 |
